Source of measurements: paper PMC10663500

Target: T1, mouse programmed cell death protein 1 Fc fusion protein (mPD-1-Fc), mPD-1 C60S (aa 25-167) (Mus musculus, UniProt Q02242, stabilised)
T1 construct: not cleaved; source: Expi293F, purified (Protein A, SEC; dimeric fraction); not shown: Fc (human), C-terminal, kept
Experiment: SPR; Carterra LSA; Fab from the ammonium sulfate precipitate of the culture supernatant immobilised on a NiHC200M chip; hPD-1 (1-1024 nM) or mPD-1-Fc (4-1024 nM) as analyte, fourfold dilution series, no regeneration; HBS-EP pH 7.4, 25 °C; medians over the spots of a construct, KD = koff/kon
Conditions: one partner purified
measurement-type: Kd (nM)
Answer format: numeric, nM implied, no suffix.

// solved cases for Kd follow
toripalimab Fab L.L101Y (Fab, V domains shown, as the heavy chain of Sm3; light chain of Sm3 with this change; numbers count from the chain's first residue; source: Brevibacillus, culture supernatant (ammonium sulfate precipitate); not shown: 6xHis, C-terminal, kept; 6xHN, C-terminal, kept) VH: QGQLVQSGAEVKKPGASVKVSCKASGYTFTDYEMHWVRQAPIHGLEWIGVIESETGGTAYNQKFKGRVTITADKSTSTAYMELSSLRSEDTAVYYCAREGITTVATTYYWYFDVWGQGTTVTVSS VL: DVVMTQSPLSLPVTLGQPASISCRSSQSIVHSNGNTYLEWYLQKPGQSPQLLIYKVSNRFSGVPDRFSGSGSGTDFTLKISRVEAEDVGVYYCFQGSHVPYTFGQGTKLEIK: 125
toripalimab Fab L.V99F (Fab, V domains shown, as the heavy chain of Sm3; light chain of Sm3 with this change; numbers count from the chain's first residue; source: Brevibacillus, culture supernatant (ammonium sulfate precipitate); not shown: 6xHis, C-terminal, kept; 6xHN, C-terminal, kept) VH: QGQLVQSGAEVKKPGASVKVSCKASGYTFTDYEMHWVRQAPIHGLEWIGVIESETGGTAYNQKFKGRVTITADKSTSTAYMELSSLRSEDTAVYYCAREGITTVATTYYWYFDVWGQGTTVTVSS VL: DVVMTQSPLSLPVTLGQPASISCRSSQSIVHSNGNTYLEWYLQKPGQSPQLLIYKVSNRFSGVPDRFSGSGSGTDFTLKISRVEAEDVGVYYCFQGSHFPLTFGQGTKLEIK: 123
toripalimab Fab H.K65Y (Fab, V domains shown, heavy chain of Sm3 with this change; numbers count from the chain's first residue; as the light chain of Sm3; source: Brevibacillus, culture supernatant (ammonium sulfate precipitate); not shown: 6xHis, C-terminal, kept; 6xHN, C-terminal, kept) VH: QGQLVQSGAEVKKPGASVKVSCKASGYTFTDYEMHWVRQAPIHGLEWIGVIESETGGTAYNQKFYGRVTITADKSTSTAYMELSSLRSEDTAVYYCAREGITTVATTYYWYFDVWGQGTTVTVSS VL: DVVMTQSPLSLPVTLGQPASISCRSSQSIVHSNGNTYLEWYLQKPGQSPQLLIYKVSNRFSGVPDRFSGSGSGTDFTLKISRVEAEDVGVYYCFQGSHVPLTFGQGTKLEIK: 299

Task item: Please give the documented Kd of toripalimab Fab L.N35A (Fab, V domains shown, as the heavy chain of Sm3; light chain of Sm3 with this change; numbers count from the chain's first residue; source: Brevibacillus, culture supernatant (ammonium sulfate precipitate); not shown: 6xHis, C-terminal, kept; 6xHN, C-terminal, kept) VH: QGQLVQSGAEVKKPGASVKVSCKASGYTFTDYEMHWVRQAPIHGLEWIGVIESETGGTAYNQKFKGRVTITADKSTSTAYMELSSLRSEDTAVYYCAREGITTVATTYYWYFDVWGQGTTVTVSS VL: DVVMTQSPLSLPVTLGQPASISCRSSQSIVHSNGATYLEWYLQKPGQSPQLLIYKVSNRFSGVPDRFSGSGSGTDFTLKISRVEAEDVGVYYCFQGSHVPLTFGQGTKLEIK
Reply: 189

Task item: Please give the documented Kd of toripalimab Fab L.S61Y (Fab, V domains shown, as the heavy chain of Sm3; light chain of Sm3 with this change; numbers count from the chain's first residue; source: Brevibacillus, culture supernatant (ammonium sulfate precipitate); not shown: 6xHis, C-terminal, kept; 6xHN, C-terminal, kept) VH: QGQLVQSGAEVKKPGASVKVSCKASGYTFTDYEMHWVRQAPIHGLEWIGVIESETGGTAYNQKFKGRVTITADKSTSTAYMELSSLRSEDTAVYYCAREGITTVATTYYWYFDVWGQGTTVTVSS VL: DVVMTQSPLSLPVTLGQPASISCRSSQSIVHSNGNTYLEWYLQKPGQSPQLLIYKVSNRFYGVPDRFSGSGSGTDFTLKISRVEAEDVGVYYCFQGSHVPLTFGQGTKLEIK
Reply: 103
